# reported IC50; entries follow
- Tested on: IL-2-FL/Gaussia Luciferase
- assay-explanation: Dox Induced IL2-FL-Gluc Assay
- Type: cell-based
- assay-setup: read-out: 24 hr Dox Inducible IL2FLGIuc 293FRT/TO: Mean IC50; 24 hr, doxycycline-induced, 293FRT/TO cells

(Q) // lookup IC50 for CC(C)(C)[Si](O[C@@H]1CCN(c2ccccc2)[C@@H]1c1csc(NC(=O)c2cccn2Cc2ccncc2)n1)(c1ccccc1)c1ccccc1 [Compound A352]
(A) 16 nM

(Q) Similarly, CC(C)(C)[Si](O[C@H]1CCN(c2ccccc2)[C@@H]1c1csc(NC(=O)c2cccn2Cc2ccncc2)n1)(c1ccccc1)c1ccccc1 [Compound A353] ?
(A) 11 nM

(Q) Now give it for CC(C)(C)[Si](O[C@@H]1C[C@H](c2csc(NC(=O)c3cccn3Cc3ccncc3)n2)N(c2ccccc2)C1)(c1ccccc1)c1ccccc1 [Compound A322] too.
(A) 9 nM

New cases:
(Q) Consider the compound shown here: O=C(Nc1nc(C2CCC(c3ccccc3)O2)cs1)c1cccn1Cc1ccncc1 (centres unmarked) [Compound A310] What is its recorded IC50?
(A) 6990 nM

(Q) // repeat for CC(C)(C)[Si](O[C@H]1C[C@H](c2csc(NC(=O)c3cccn3Cc3ccncc3)n2)N(c2ccccc2)C1)(c1ccccc1)c1ccccc1 [Compound A323] and report
(A) 10 nM

* * *

Examples of compounds with documented log10 of IC50 follow.
- Test system: HER3-ss+4aa/Gaussia Luciferase
- assay-explanation: Dox-Induced Her3-ss-Gluc Assay
- Format: cell-based
- assay-setup: 24 hr doxycycline induction, 293FRT/TO cells, Gaussia luciferase signal; read-out: 24 hr Dox Inducible Her3(ss + 4)Gluc 293FRT/TO: Mean IC50
The common logarithm of IC50 in nM is what is listed.

Past entries and their recorded results:
(Q) // lookup log10 of IC50 for O=C(Nc1nc(/C=C/c2cnc3c(c2)OCO3)cs1)c1cccn1Cc1ccncc1
(A) 3.41

(Q) Also O=C(Nc1nc(C2(OCc3ccccc3)CC2)cs1)c1cccn1Cc1ccncc1 ?
(A) 2.98

(Q) What do you get for O=C(Nc1nc(C2CC(c3ccccc3)C2)cs1)c1cccn1Cc1ccncc1 (stereo not drawn) ?
(A) 2.11

(Q) Subsequent entry: O=C(Nc1nc(/C=C/c2ccccc2)cs1)c1cccn1CCCc1ccncc1
(A) 3.21

(Q) And Cc1sc(NC(=O)c2cccn2Cc2ccncc2)nc1C(C)C ?
(A) 3.08

Further cases:
(Q) log10 of IC50 lookup needed for CCc1csc(NC(=O)c2cccn2Cc2ccncc2)n1 , thanks.
(A) 3.29

(Q) Please answer likewise for O=C(Nc1nc(-c2ccccc2)cs1)c1cccn1Cc1ccncc1
(A) 3.28

(Q) Another compound to look at: O=C(Nc1nc(C2CCN(c3ccccc3)CC2)cs1)c1cccn1CCCc1ccncc1
(A) 3.26

(Q) Next: O=C(Nc1nc(/C=C/c2ccc([N+](=O)[O-])cc2)cs1)c1cccn1Cc1ccncc1
(A) 2.58

(Q) Now consider CC(c1ccccc1)c1csc(NC(=O)c2cccn2Cc2ccncc2)n1 (stereo not drawn) .
(A) 2.77

(Q) Also, O=C(Nc1nc(C2=Cc3ccccc3C2)cs1)c1cccn1Cc1ccncc1 please.
(A) 2.78

(Q) Moving on to CC(C)c1cnc(NC(=O)c2cccn2Cc2ccncc2)s1
(A) 3.50

(Q) Field entry: O=C(Nc1nc(C#Cc2ccccc2Cl)cs1)c1cccn1Cc1ccncc1
(A) 2.60

(Q) And for Cc1cnccc1Cn1cccc1C(=O)Nc1nc(C(C)(C)OC(C)C)cs1 ?
(A) 2.79

(Q) Next compound up: O=C(Nc1nc(CCc2ccccc2Cl)cs1)c1cccn1Cc1ccncc1
(A) 2.56

(Q) Again, but for CC1(c2csc(NC(=O)c3cccn3Cc3ccncc3)n2)CC1
(A) 3.51

* * *

- Test system: PD1-ss+10aa/Gaussia Luciferase
- assay-explanation: Dox-Induced PD1-ss-Gluc Assay
- Format: cell-based
- assay-setup: 24 hr doxycycline induction, 293FRT/TO cells, Gaussia luciferase signal; read-out: 24 hr Dox Inducible PD1ssGluc 293FRT/TO: Mean IC50
- Experimental: Transfected cells were selected for resistance to the selectable markers Hygromycin and Blasticidin to create a stable cell line that contained the PD1-ss+10aa/Gaussia Luciferase cDNA insert whose expression was regulated under the T-REx™ system. The day before assay, cells were trypsinized and plated in 384-well tissue culture plates. The next day, compound dilutions in DMSO/media containing doxycycline were added to the wells and incubated at 37° C., 5% CO2. […]
We begin with a simple list: items and their reported pIC50.
Lab note: report pIC50 as minus log10 of the concentration in molar units, number only.

A selection of reference data follows.
(Q) // returns reported pIC50 for input O=C(Nc1nc(/C=C/c2ccccc2)cs1)c1cccn1CCCc1ccncc1
(A) 6.18

(Q) Similarly, CC(OC(C)(C)c1csc(NC(=O)c2cccn2Cc2ccncc2)n1)c1cccc(Cl)c1 (centres unmarked) ?
(A) 7.54

(Q) Input O=C(Nc1nc(CCc2cccc(Cl)c2)cs1)c1cccn1Cc1ccncc1
(A) 6.68

---
(Q) Please give the measured pIC50 for this compound: O=C(Nc1nc(/C=C/c2ccc3c(c2)OC(F)(F)O3)cs1)c1cccn1Cc1ccncc1
(A) 7.20

(Q) And then CC(C)(COc1ccccc1)c1csc(NC(=O)c2cccn2Cc2ccncc2)n1 , what is it?
(A) 6.47

(Q) Would you kindly repeat that for O=C(Nc1nc(/C=C/c2ccc([N+](=O)[O-])cc2)cs1)c1cccn1Cc1ccncc1 ?
(A) 7.28

(Q) Same question for COc1cccc(/C=C/c2csc(NC(=O)c3cccn3Cc3ccncc3)n2)c1 please.
(A) 6.61

(Q) Let us now turn to O=C(Nc1nc(Cc2ccccc2)cs1)c1cccn1Cc1ccncc1NCc1ccccc1
(A) 4.92

(Q) Next entry: O=C(Nc1nc(C2CCC(c3ccccc3)CC2)cs1)c1cccn1Cc1ccncc1 (centres unmarked)
(A) 6.99

(Q) Can you handle O=C(Nc1nc(C2CC(c3ccccc3)C2)cs1)c1cccn1Cc1ccncc1 (centres unmarked) next?
(A) 7.28

(Q) # iterate: CC(C)c1csc(NC(=O)c2cccn2Cc2ccncc2)n1
(A) 6.50

(Q) Can you handle O=C(Nc1nc(C2=CCN(c3ccccc3)CC2)cs1)c1cccn1Cc1ccncc1 next?
(A) 6.15

(Q) Please give the result for Cc1cccc2sc(NC(=O)c3cccn3Cc3ccncc3)nc12 too.
(A) 5.97

(Q) Also need CC(=O)Nc1ccc(/C=C/c2csc(NC(=O)c3cccn3Cc3ccncc3)n2)cc1 , thanks.
(A) 6.29

(Q) # repeat for CC(C)(COc1ccccn1)c1csc(NC(=O)c2cccn2Cc2ccncc2)n1
(A) 6.32

* * *

- Tested on: HER3-ss+4aa/Gaussia Luciferase
- assay-explanation: Dox-Induced Her3-ss-Gluc Assay
- Assay type: cell-based
- assay-setup: 24 hr doxycycline induction, 293FRT/TO cells, Gaussia luciferase signal; read-out: 24 hr Dox Inducible Her3(ss + 4)Gluc 293FRT/TO: Mean IC50
observation-type: pIC50
The meaning of pIC50 here: minus log10 of the concentration in molar units.

(Q) Fill in: pIC50 of O=C(Nc1nc(/C=C/c2ccccc2)cs1)c1cccn1Cc1ccncc1 [Compound A14] is ___
(A) 6.25

(Q) Field entry: CC(C)OC(C)(C)c1csc(NC(=O)c2cccn2Cc2ccc(C#N)cc2)n1 [Compound A80]
(A) 5.10

(Q) Then what about the compound CCc1nc(NC(=O)c2cccn2Cc2ccncc2Cl)sc1C [Compound A66] ?
(A) 5.38

(Q) Repeat with O=C(Nc1nc(/C=C/C2CCCCO2)cs1)c1cccn1Cc1ccncc1 (stereo not drawn) [Compound A155]
(A) 5.67

(Q) Next up: C[C@@H](OC(C)(C)c1csc(NC(=O)c2cccn2Cc2ccncc2)n1)c1ccccc1 [Compound A18]
(A) 6.34

(Q) Check O=C(Nc1nc(/C=C/c2ccc(C(F)(F)F)cc2)cs1)c1cccn1Cc1ccncc1 [Compound A219] too.
(A) 6.63

(Q) How about this compound: CCc1nc(NC(=O)c2cccn2Cc2ccncc2)sc1C [Compound A32]
(A) 5.88

(Q) Next compound: O=C(Nc1nc(C(F)(F)F)cs1)c1cccn1Cc1ccncc1 [Compound A19]
(A) 6.31

(Q) Okay, and O=C(Nc1nc(C2Cc3ccccc3O2)cs1)c1cccn1Cc1ccncc1 (stereo not drawn) [Compound A288] ?
(A) 5.90

(Q) O=C(Nc1nc(Cc2ccccc2)cs1)c1cccn1Cc1ccncc1 [Compound A17] ?
(A) 6.25

(Q) Proceed to COc1ccc(/C=C/c2csc(NC(=O)c3cccn3Cc3ccncc3)n2)cc1 [Compound A160]
(A) 6.59

(Q) Thanks! And Cc1ccc(C(=O)Nc2nc(C(C)(C)OC(C)C)cs2)n1Cc1ccncc1 [Compound A76] ?
(A) 4.90

(Q) Could you do the same for CC(C)OC(C)(C)c1csc(NC(=O)c2cccn2CCCc2ccccc2Cl)n1 [Compound A68] , please?
(A) 5.56
